Endpoint: IC50. System: ROCK2 (Homo sapiens, UniProt O75116). Items follow.
Sequence (O75116 whole entry): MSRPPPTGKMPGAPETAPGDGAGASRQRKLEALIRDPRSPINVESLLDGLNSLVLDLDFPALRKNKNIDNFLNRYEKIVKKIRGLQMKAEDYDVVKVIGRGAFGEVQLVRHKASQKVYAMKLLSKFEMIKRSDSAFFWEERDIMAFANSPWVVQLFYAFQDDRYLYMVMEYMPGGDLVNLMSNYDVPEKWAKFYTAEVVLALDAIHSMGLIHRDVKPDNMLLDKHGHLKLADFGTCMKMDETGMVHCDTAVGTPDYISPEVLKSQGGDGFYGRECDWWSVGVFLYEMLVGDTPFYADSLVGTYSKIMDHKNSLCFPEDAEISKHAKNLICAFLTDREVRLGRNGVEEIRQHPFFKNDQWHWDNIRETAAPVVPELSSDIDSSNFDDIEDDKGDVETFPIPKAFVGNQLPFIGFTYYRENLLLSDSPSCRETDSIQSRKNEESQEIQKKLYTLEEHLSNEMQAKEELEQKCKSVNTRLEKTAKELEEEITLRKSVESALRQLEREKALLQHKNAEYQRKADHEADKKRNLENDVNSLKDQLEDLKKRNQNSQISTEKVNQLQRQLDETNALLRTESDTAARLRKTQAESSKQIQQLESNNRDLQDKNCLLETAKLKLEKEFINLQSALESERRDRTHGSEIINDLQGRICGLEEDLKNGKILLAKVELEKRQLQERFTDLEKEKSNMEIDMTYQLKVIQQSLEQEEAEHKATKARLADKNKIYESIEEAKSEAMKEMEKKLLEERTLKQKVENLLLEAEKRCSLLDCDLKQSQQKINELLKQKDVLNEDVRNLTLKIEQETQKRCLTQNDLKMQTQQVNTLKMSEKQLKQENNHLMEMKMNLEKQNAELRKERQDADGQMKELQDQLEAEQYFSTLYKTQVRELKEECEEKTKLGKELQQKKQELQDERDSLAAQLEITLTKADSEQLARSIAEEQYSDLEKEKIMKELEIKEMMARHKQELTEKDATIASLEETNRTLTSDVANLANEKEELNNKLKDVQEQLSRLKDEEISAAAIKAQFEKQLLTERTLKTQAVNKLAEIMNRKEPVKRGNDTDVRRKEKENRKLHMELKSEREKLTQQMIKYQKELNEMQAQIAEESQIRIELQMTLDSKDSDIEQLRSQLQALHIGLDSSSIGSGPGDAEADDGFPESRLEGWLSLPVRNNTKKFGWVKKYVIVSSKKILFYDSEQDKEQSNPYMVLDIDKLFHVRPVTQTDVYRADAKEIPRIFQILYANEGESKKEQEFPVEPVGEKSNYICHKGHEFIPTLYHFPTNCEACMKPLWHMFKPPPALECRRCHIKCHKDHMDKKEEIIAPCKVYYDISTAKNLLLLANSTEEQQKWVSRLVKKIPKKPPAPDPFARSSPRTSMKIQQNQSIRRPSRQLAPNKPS
QUANTITY_NAME: IC50

[[record]]
molecule = "O=C(Nc1cccc(-c2nnc(Nc3ccc4[nH]ncc4c3)o2)c1)c1cccnc1 [Example 38]"
reported = "< 300 nM"

[[record]]
molecule = "Cn1cc(C(=O)Nc2cccc(-c3nnc(Nc4ccc5[nH]ncc5c4Cl)o3)c2)cn1 [Example 55]"
reported = "< 300 nM"

[[record]]
molecule = "COc1cc(-n2nc(Nc3ccc4[nH]ncc4c3)c3ccccc32)ccc1OCC(=O)NC(C)C [Example 17]"
reported = "< 300 nM"

[[record]]
molecule = "COc1cc(-n2cc(C)c(Nc3ccc4[nH]ncc4c3Cl)n2)ccc1C(=O)NC1CCN(C)C1 (centres unmarked) [Example 86]"
reported = "< 300 nM"

[[record]]
molecule = "Cn1cc(-c2nc3cc(-n4ccc(Nc5ccc6[nH]ncc6c5Cl)n4)ccc3o2)cn1 [Example 65]"
reported = "< 300 nM"

[[record]]
molecule = "COc1cc(-n2cc(C)c(Nc3ccc4[nH]ncc4c3Cl)n2)ccc1C(=O)NC1CCCC1 [Example 87]"
reported = "< 300 nM"

[[record]]
molecule = "Cn1cc(C(=O)Nc2cccc(-c3noc(Nc4ccc5[nH]ncc5c4Cl)n3)c2)cn1 [Example 62]"
reported = "< 300 nM"

[[record]]
molecule = "Cn1cc(-n2nc(Nc3ccc4[nH]ncc4c3Cl)c3ccccc32)cc(NC(=O)c2ccccc2F)c1=O [Example 68]"
reported = "< 300 nM"

[[record]]
molecule = "Cn1cc(C(=O)Nc2cccc(-c3noc(Nc4ccc5[nH]ncc5c4)n3)c2)cn1 [Example 42]"
reported = "< 300 nM"

[[record]]
molecule = "COc1cc(-n2ccc(Nc3ccc4[nH]ncc4c3Cl)n2)ccc1OCC(=O)NC(C)C [Example 12]"
reported = "< 300 nM"

[[record]]
molecule = "Cn1cc(C(=O)Nc2cccc(-c3nc(Nc4ccc5[nH]ncc5c4Cl)no3)c2)cn1 [Example 63]"
reported = "< 300 nM"

